Origin of values: the supplement of paper PMC4862054

Documented normalised response across a set of compounds
system: CAL-120; assay: normalised response (% of control), CellTiter-Glo; higher = more viable cells (100 = DMSO, 0 = benzethonium chloride kill control); conditions: incubation time: 72 h
The reply should contain only the number, in %.

# compound, normalised response / %
records = [
    ("Oc1nc(-c2ccc(C(F)(F)F)cc2)nc2c1CSCC2 [XAV-939] (1 nM)", 97.1),
    ("O=C1CCC(N2C(=O)c3ccccc3C2=O)C(=O)N1 (stereo not given) [Thalidomide] (10 nM)", 94.2),
    ("CNCc1ccc(-c2[nH]c3cc(F)cc4c3c2CCNC4=O)cc1 [Rucaparib] (1000 nM)", 105),
    ("N#CCNC(=O)c1ccc(-c2ccnc(Nc3ccc(N4CCOCC4)cc3)n2)cc1 [Momelotinib] (10 nM)", 95.1),
    ("Cc1ccc(C(=O)Nc2ccc(CN3CCN(C)CC3)c(C(F)(F)F)c2)cc1C#Cc1cnc2cccnn12 [Ponatinib] (1 nM)", 106),
    ("CC1(C)NC(=O)N(c2ccc([N+](=O)[O-])c(C(F)(F)F)c2)C1=O [Nilutamide] (1000 nM)", 102),
    ("Cc1ccc(-n2nc(C(C)(C)C)cc2NC(=O)Nc2ccc(OCCN3CCOCC3)c3ccccc23)cc1 [Doramapimod] (1000 nM)", 101),
    ("Clc1ccc(Nc2nnc(Cc3ccncc3)c3ccccc23)cc1 [Vatalanib] (10 nM)", 96),
    ("CCCCCCCCCCCCCCCCCCOP(=O)([O-])OC1CC[N+](C)(C)CC1 [Perifosine] (0.25 nM)", 108),
    ("C=C(c1ccc(C(=O)O)cc1)c1cc2c(cc1C)C(C)(C)CCC2(C)C [Bexarotene] (10 nM)", 101),
]

Q: Which measured normalised response value corresponds to CCC1(c2ccc(N)cc2)CCC(=O)NC1=O (stereo not given) [Aminoglutethimide] (10 nM) ?
Result: 100

Q: Which measured normalised response value corresponds to Cn1c(Nc2ccc(C(F)(F)F)cc2)nc2cc(Oc3ccnc(-c4ncc(C(F)(F)F)[nH]4)c3)ccc21 [RAF265] (0.1 nM) ?
Result: 99

Q: Which measured normalised response value corresponds to CN(N=O)C(=O)N[C@@H](C=O)[C@@H](O)[C@H](O)[C@H](O)CO [Streptozocin] (10 nM) ?
Result: 100

Q: Which measured normalised response value corresponds to COc1cc([C@@H]2c3cc4c(cc3[C@@H](O[C@@H]3O[C@@H]5CO[C@@H](C)O[C@H]5[C@H](O)[C@H]3O)[C@H]3COC(=O)[C@H]23)OCO4)cc(OC)c1O [Etoposide] (10 nM) ?
Result: 103

Q: Which measured normalised response value corresponds to COc1cc2nccc(Oc3ccc(NC(=O)C4(C(=O)Nc5ccc(F)cc5)CC4)cc3)c2cc1OC [Cabozantinib] (1 nM) ?
Result: 100

###

Documented normalised response across a set of molecules
system: HCC1937; assay: normalised response (% of control), CellTiter-Glo; higher = more viable cells (100 = DMSO, 0 = benzethonium chloride kill control); conditions: incubation time: 72 h
The reply should contain only the number, in %.

# molecule, uom, result number
measured = [
    ("Oc1nc(-c2ccc(C(F)(F)F)cc2)nc2c1CSCC2 [XAV-939] (1 nM)", "%", 97.2),
    ("CCC1(c2ccc(N)cc2)CCC(=O)NC1=O (stereo not drawn) [Aminoglutethimide] (1 nM)", "%", 96.2),
    ("CCC(C)(C)C(=O)O[C@H]1C[C@@H](C)C=C2C=C[C@H](C)[C@H](CC[C@@H]3C[C@@H](O)CC(=O)O3)[C@H]21 [Simvastatin] (1 nM)", "%", 103),
    ("Cc1ccc(C(=O)N(CCCN)[C@@H](c2oc3cc(Cl)ccc3c(=O)c2Cc2ccccc2)C(C)C)cc1 (0.1 nM)", "%", 101),
]

Q: Look up normalised response with HCC1937 for this molecule: O=C1CCC(N2C(=O)c3ccccc3C2=O)C(=O)N1 (stereo not drawn) [Thalidomide] (10 nM)
Result: 95.3

Q: Look up normalised response with HCC1937 for this molecule: O=C1CCC(N2C(=O)c3ccccc3C2=O)C(=O)N1 (stereo not drawn) [Thalidomide] (1000 nM)
Result: 98

Q: Look up normalised response with HCC1937 for this molecule: Cc1ccc(C(=O)Nc2ccc(CN3CCN(C)CC3)c(C(F)(F)F)c2)cc1C#Cc1cnc2cccnn12 [Ponatinib] (100 nM)
Result: 97.2

Q: Look up normalised response with HCC1937 for this molecule: CC(=O)Nc1ccc(C(=O)Nc2ccccc2N)cc1 [Tacedinaline] (1 nM)
Result: 92.7
